assay: NCI Yeast Anticancer Drug Screen. Data for the mlh1 rad18 strain (AID 175); details: S. cerevisiae mlh1 rad18 strain growth inhibition; at 50.0 µM
This is part of a sample that, as a whole, favours compounds with a hit. Of some 79,000 tested, about 15% had one in any assay. Activity calls are given as the source filed them. No stated cut-off is given here; in the data, active means growth inhibition above about 70%; inactive means the rest.
Outcome field: choose from active, inactive

### Prompt # fetch the recorded call for `Cc1cccc(C)c1N=C(N)N[N+](=O)[O-]` here
### Response active

### Prompt Assay outcome for `O=[As](O)(O)c1ccccc1Cl` : what was it?
### Response inactive

### Prompt Please indicate how the test categorized `CN1C(=O)C(=Cc2cccc([N+](=O)[O-])c2)C(=O)N(C)C1=O` .
### Response inactive

### Prompt Which outcome did this test record for the compound `CC(=O)[O][Pb]([O]C(C)=O)([O]C(C)=O)[c]1ccccc1` ?
### Response active

### Prompt Hi team, can someone confirm the assay call for CCOC(=O)[C]1([Pb]([CH3])([CH3])[CH3])N=NC(C(=O)OC)=C1C(=O)OC (stereo not given) ?
### Response inactive

### Prompt Short answer needed: outcome of this test for O=C1CCN2CCCC1C2 (stereo not given) ?
### Response inactive

### Prompt For O=[As](O)(c1cccc(Cl)c1)C1CCCCC1O (stereo not given) , which call appears in the assay record?
### Response inactive

### Prompt Called result for `C/C1=C\[C@H](C)C[C@H](C)OC(=O)C[C@H](c2ccc(O)cc2)NC(=O)[C@@H](Cc2c(Br)[nH]c3ccccc23)N(C)C(=O)[C@H](C)NC(=O)[C@@H](C)C1`
### Response active

### Prompt Could you please tell me the result logged for CC1NC1c1ccccc1 (stereo not given) in this assay?
### Response inactive

### Prompt Lab log entry: `Cc1c([N+](=O)[O-])cc2c(c1[N+](=O)[O-])C(C)(C)CC2(C)C` — outcome as called in the assay?
### Response inactive

### Prompt Name the outcome recorded for `CC[C@@]1(O)C(=O)OCc2c1c(Cl)c1n(c2=O)Cc2cc3ccccc3nc2-1` in the assay.
### Response inactive

### Prompt Assay outcome for `O=C([O-])c1ccccc1Nc1ccccn1.O=C([O-])c1ccccc1Nc1ccccn1.[Ni+2]` : what was it?
### Response inactive

### Prompt What is the recorded call for this compound in the test? `Cc1nc2ccc(Br)cc2c(=O)n1-c1ccc(N)cc1`
### Response inactive

### Prompt Test call, this compound: `O=[N+]([O-])CCCCl`
### Response inactive

### Prompt Per the records of this test, what outcome belongs to `Sc1nc2ccccc2s1.Sc1nc2ccccc2s1.Sc1nc2ccccc2s1.Sc1nc2ccccc2s1.[Cl][Rh][Cl]` ?
### Response active

### Prompt Query: recorded result category for CC1(C)N=C(NN=C2CCCCC2)SP1(=O)NNc1ncccn1 (stereo not given) in this test
### Response inactive

### Prompt # fetch the recorded call for `COc1ccc(P2(=S)OC(C)(C)C(C)(C)O2)cc1` here
### Response inactive

### Prompt // return assay outcome for `O=c1c(O)c(-c2ccccc2)oc2ccccc12.[Zn+2]`
### Response inactive

### Prompt What did the test return for `O=NNc1ccc(Cl)cn1` ?
### Response inactive

### Prompt Hi, do you know how NC1C[S][Sn][O]C1=O (stereo not given) came out in this test?
### Response inactive

### Prompt Record lookup: outcome of this test for `N#CC(C#N)=Cc1c(O)ccc2ccccc12` ?
### Response active

### Prompt How was CC(=O)c1ccc([As]=O)cc1 (stereo not given) classified in this test?
### Response active

### Prompt Which outcome was assigned to `O=[C-]c1ccccc1[C-]=O.[Pd+2].c1ccc([PH+](c2ccccc2)c2ccccc2)cc1.c1ccc([PH+](c2ccccc2)c2ccccc2)cc1` in this test?
### Response inactive

### Prompt Write down the call the test reported for this compound. Item: `CCCCC1(CCS)C(=O)NC(=O)NC1=O`
### Response inactive

### Prompt Test call for this compound, please: CC(=O)OCC1OC(OC(C)=O)C(N(CCCl)CCCl)C(OC(C)=O)C1OC(C)=O (stereo not given)
### Response inactive

### Prompt Entry `NC(N)=Nc1c(N)ncnc1N` : call = ?
### Response inactive

### Prompt Record request — test call for NC(=O)COc1ccc([As]=O)cc1 (stereo not given)
### Response inactive

### Prompt Any idea what this test logged for `O=C(Cl)OCCOCCOC(=O)Cl` ?
### Response inactive

### Prompt Query: recorded result category for `O=c1[nH]c2ccc([As](=O)(O)O)cc2[nH]1` in this test
### Response inactive

### Prompt Name the outcome recorded for CC(=O)C(CN(CC(C)C)CC(C)C)C(c1ccccc1)c1c(O)c2ccccc2oc1=O (stereo not given) in the assay.
### Response active

### Prompt Which outcome did this test record for the compound COc1cccc(C(O)CN(C)C)c1OC (stereo not given) ?
### Response inactive

### Prompt Can you look up the reported call for CC12CCCCC1C(=O)C2(Cl)Cl (stereo not given) for me?
### Response inactive

### Prompt Test call for this compound, please: `COc1ccc(C[C@H]2NC[C@H](O)[C@H]2OC(C)=O)cc1`
### Response active

### Prompt Could you kindly confirm the outcome this assay logged for `NNC(=O)NC(=O)NN` ?
### Response inactive

### Prompt What is the recorded call for this compound in the test? `O=C([O-])CC(=O)[O-].O=C([O-])CC(=O)[O-].[K+].[Pd+2]`
### Response inactive

### Prompt Name the outcome recorded for O=P(O)(O)c1ccccc1 (tested in a mixture with another compound) in the assay.
### Response inactive

### Prompt Hey, what did the test say about CCC1(O)C(=O)OCc2c1cc1n(c2=O)Cc2cc3cc4c(cc3nc2-1)OCO4 (stereo not given) ?
### Response active

### Prompt Test call for this compound, please: `CCC[CH2][Sn]1([CH2]CCC)[O]C(=O)c2cccc(OC)c2[O]1`
### Response active

### Prompt Which outcome was assigned to `NCCCP(c1ccccc1)c1ccccc1` in this test?
### Response inactive

### Prompt // outcome(item) with item = CCC(=O)C(CCN1CCC(N2C(=O)C(CCC#N)c3ccccc32)CC1)(c1ccccc1)c1ccccc1 (stereo not given)
### Response inactive

### Prompt Per the assay record, what outcome was assigned to CCC(Br)C(=O)O (stereo not given) ?
### Response inactive

### Prompt Called result for `[N-]=[N+]=Nc1c([N+](=O)[O-])c(=O)n2c3c(cccc13)CCC2`
### Response active

### Prompt Recorded test outcome, item CC(O)C[N+](=O)[O-] (stereo not given)
### Response inactive

### Prompt What outcome does the record of this test show for CCCC(C)C1C(=O)N(C)C(=O)N(C)C1=O (stereo not given) ?
### Response inactive

### Prompt Test call, this compound: `CCOP(=O)(OCC)C(C)(C)OC(=O)NC(F)(F)F`
### Response inactive
